Test: yeast display, Sf9 membrane polyspecificity reagent, FACS + sequencing; frameworks hold sequencing errors
measured_quantity: polyreactivity (PSR sort gate)

>>> measured_value("QVQLVESGGCLVQAGGSLRLSCAASGSTFTPYVMGWYRHAPGKERELVAAISKRGGSTYYADSVKGRFTISRDNAKNTVYLQMNRLKPEDTAVYYCAAVQPAWGNGYWGQGTQVTVSS")
"high polyreactivity"
>>> measured_value("QVQLVESGGGLVQAGGSRRLSCAASGSIFATYAIGWYRQAPGKERELVAAISWSGGRTYYADSVKGRFTISRDNAKNTVYLEMNSLKPEDTAVYYCNAVTLLGTRGYGYWGQGTQVTVSS")
"high polyreactivity"
>>> measured_value("QVQLVETGGGLVQAGGSLRLSCAASGLIFYRYAMGWYRQAPGKERELVAVITRSGGNTNYADSVKGRFTISRDNAKNTVYLQMNSLKPEDTAVYYCATRGIWKKVPYYYWGQGTQVTVSS")
"high polyreactivity"
>>> measured_value("QVQLVESVGGLVKAGGSLRLSCAASGRTFYNAMGWYRQAPGKERELVAAISSDGSTYYADSVKGRFTISRDNAKNTVYLQMNSLKPEDTAVYYCARDLGSWYYQVRFGYWGQGTQVTVSS")
"high polyreactivity"
>>> measured_value("QVQLVESRGGLVQAGGSLRLSCAASGSTLYQYAMGWYRQAPGKERELVAAITKSGGRTYYADSVKGRFTISRDNAKNTVYLHMNSLKPEDTAVYYCNVVRGSYSSGGDYWGQGTQVTVSS")
"high polyreactivity"
>>> measured_value("QVQLVESGGGLVQAGGSLRLSCAASGIIFSTYAMGWYRQAPGKERELVAAISVSGGRTYYADSVKGRFTISRDNAKNTVYLQMNSLKREDTAVYSCNALSSTEYDYWGQGTQVTVSS")
"high polyreactivity"
>>> measured_value("QVQLVESGGGLVQAGGSLRLSCAASGSTFNGYVMGWYRQAPGKERELVAAISRSGGSTYYADSVKGRFTISRDNAKNTVYLQMNSLKPEDTAVYYCAVQRKSSKRAFRYGYWGQGTQVTVSS")
"high polyreactivity"
>>> measured_value("QVQLVESGGGLVHAGCSLRLSCAASVSTFQVYGLGWYRQAPGKEREMVAAISRSGVRTYYADSVKARFTMSRDNAKNTVYLQMNSLKPEDTAVYYCAKTYQSTTSKSGYYYWGQGTQVTVSS")
"high polyreactivity"
>>> measured_value("QVQLVESGGGLVQAGGSLLLSCAASGRIFDRNAIGWYRQAPGKERELVAAINSVGTTYYADSVKGRFTISRDNAKNTVYLQMNSLKPEDTAVYYCAARSAYRRGYWGQGTQVTLSS")
"high polyreactivity"
>>> measured_value("QVQLVESGGGLVQAGGSLRLSCAASGLTFAGYAMGWYRQAPGKERELVAAITYSTGRTYYADSVKGRFTISRDNAKTTVYFQMNSLKPEDTAVYYCAALLRGQDRTMDYWGQGTQVTVSS")
"high polyreactivity"
